Values from patent US10160738B2

study target: rat α1β2γ2L type GABAA receptors expressed in Xenopus laevis oocytes (Rattus norvegicus, UniProt P18508+P62813+P63138, INS375LLRMFSFK)
Construct: expressed in transfected cells; host or cells: Xenopus laevis oocytes
Sequence (P62813 28-455, stated change not applied): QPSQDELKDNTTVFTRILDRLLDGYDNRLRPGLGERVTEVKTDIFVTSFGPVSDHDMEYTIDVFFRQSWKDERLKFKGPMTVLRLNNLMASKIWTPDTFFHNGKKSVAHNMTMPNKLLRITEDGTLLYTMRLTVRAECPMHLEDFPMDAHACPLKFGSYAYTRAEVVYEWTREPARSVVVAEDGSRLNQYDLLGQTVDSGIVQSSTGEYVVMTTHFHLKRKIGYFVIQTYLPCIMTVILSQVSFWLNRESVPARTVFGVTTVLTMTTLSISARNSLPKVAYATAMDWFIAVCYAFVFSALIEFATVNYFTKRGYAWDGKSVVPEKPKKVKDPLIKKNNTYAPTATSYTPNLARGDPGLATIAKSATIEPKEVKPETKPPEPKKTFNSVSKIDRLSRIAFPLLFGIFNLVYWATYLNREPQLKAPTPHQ
Sequence (P63138 26-474, stated change not applied): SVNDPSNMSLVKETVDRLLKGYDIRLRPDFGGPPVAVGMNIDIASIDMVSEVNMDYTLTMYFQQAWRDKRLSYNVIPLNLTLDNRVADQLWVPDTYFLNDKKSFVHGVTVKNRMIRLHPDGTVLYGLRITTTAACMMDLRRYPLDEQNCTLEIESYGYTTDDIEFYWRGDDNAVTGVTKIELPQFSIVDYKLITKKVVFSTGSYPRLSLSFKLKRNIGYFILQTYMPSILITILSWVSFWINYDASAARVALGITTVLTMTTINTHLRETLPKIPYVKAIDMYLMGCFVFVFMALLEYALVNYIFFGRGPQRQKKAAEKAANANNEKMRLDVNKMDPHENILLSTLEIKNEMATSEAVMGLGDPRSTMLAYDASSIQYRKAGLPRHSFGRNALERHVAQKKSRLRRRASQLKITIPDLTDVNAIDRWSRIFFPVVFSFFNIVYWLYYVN
Sequence (P18508 with tags, fused parts or gaps INS375LLRMFSFK): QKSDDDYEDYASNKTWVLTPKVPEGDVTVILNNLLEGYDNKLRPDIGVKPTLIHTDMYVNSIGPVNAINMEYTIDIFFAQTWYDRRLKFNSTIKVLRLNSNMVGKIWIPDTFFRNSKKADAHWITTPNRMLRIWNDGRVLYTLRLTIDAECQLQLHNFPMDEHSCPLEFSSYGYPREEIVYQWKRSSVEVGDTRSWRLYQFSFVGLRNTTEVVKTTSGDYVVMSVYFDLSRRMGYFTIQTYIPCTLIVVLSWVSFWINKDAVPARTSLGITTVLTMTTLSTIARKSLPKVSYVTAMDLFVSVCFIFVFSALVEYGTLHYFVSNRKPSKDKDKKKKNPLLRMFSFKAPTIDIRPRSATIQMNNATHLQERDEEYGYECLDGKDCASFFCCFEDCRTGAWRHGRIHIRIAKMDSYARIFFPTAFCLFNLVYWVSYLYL
assay summary: Potentiation of GABA-mediated chloride currents, oocyte electrophysiology
Assay type: cell-based
condition: ratio of currents in presence/absence of 1.0 μM compound; 2 μM GABA; ± SEM, N≥4
Answer each item with its documented Oocyte electrophysiology 1.0 μM.
One number for each entry.

A selection of reference data follows.
1. C[C@@]12CC[C@H]3C[C@H]4C[C@H](O)CC[C@@H]4C[C@@H]3[C@H]1CC(=O)C2    0.83
2. C[C@]12CC[C@@H]3C[C@@H]4C[C@@H](O)CC[C@H]4C[C@H]3[C@@H]1CC[C@@H]2C#N    3.65
3. C[C@]12CC[C@@H]3C[C@@H]4C[C@@H](O)CC[C@H]4C[C@H]3[C@@H]1CC=C2C#N    2.08
4. C[C@@]12CC[C@H]3C[C@H]4C[C@H](O)CC[C@@H]4C[C@@H]3[C@H]1CCC2=O    2.21
5. C[C@@]12CC[C@H]3C[C@H]4C[C@H](O)CC[C@@H]4C[C@@H]3[C@H]1CC[C@]21CO1    2.94

Batch request: Oocyte electrophysiology 1.0 μM per item, same order as input.
1. C[C@@]12CC[C@H]3C[C@H]4C[C@H](O)CC[C@@H]4C[C@@H]3[C@H]1CC=C2C#N
2. C[C@]12CC[C@@H]3C[C@@H]4C[C@@H](O)CC[C@H]4C[C@H]3[C@@H]1CCC2=O
3. C[C@]12CC[C@@H]3C[C@@H]4C[C@@H](O)CC[C@H]4C[C@H]3[C@@H]1CC[C@@]21CO1

**Result**
[5.69, 1.00, 7.67]

* * *

measured quantity: melting point

1) C[C@]12CC[C@@H]3C[C@@H]4C[C@@H](O)CC[C@H]4C[C@H]3[C@@H]1CC=C2C#N    164 to 166 °C
2) C[C@@]12CC[C@H]3C[C@H]4C[C@H](O)CC[C@@H]4C[C@@H]3[C@H]1CC=C2C#N    165 to 167 °C
3) C[C@@]12CC[C@H]3C[C@H]4C[C@H](O)CC[C@@H]4C[C@@H]3[C@H]1CCC2=O    152 to 154 °C

# context switch: different compound, same melting point
**Query** Which melting point value is on record for C[C@]12CC[C@@H]3C[C@@H]4C[C@@H](O)CC[C@H]4C[C@H]3[C@@H]1CC[C@@]21CO1 ?
**Result** 140 to 142 °C

* * *

Answer each item with its documented Oocyte electrophysiology 10 μM.
study target: rat α1β2γ2L type GABAA receptors expressed in Xenopus laevis oocytes (Rattus norvegicus, UniProt P18508+P62813+P63138, INS375LLRMFSFK)
Construct: expressed in transfected cells; host or cells: Xenopus laevis oocytes
assay summary: Potentiation of GABA-mediated chloride currents, oocyte electrophysiology
Assay type: cell-based
condition: ratio of currents in presence/absence of 10 μM compound; 2 μM GABA; ± SEM, N≥4
Protocol: The compounds of the present disclosure were evaluated for the ability to potentiate chloride currents mediated by 2 μM GABA at rat α1β2γ2L type GABAA receptors expressed in Xenopus laevis oocytes and the results are shown in Table 2. The GABA concentration used for the control response was 2 μM. Each compound was evaluated on at least four different oocytes at the concentrations indicated, and the results reported are the ratio of currents measured in the presence/absence of added compound. […]
Give bare numbers.

A selection of reference data follows.
1) C[C@@]12CC[C@H]3C[C@H]4C[C@H](O)CC[C@@H]4C[C@@H]3[C@H]1CCC2=O    8.81
2) C[C@@]12CC[C@H]3C[C@H]4C[C@H](O)CC[C@@H]4C[C@@H]3[C@H]1CC=C2C#N    18.39

Batch request: Oocyte electrophysiology 10 μM per item, same order as input.
1. C[C@@]12CC[C@H]3C[C@H]4C[C@H](O)CC[C@@H]4C[C@@H]3[C@H]1CC[C@]21CO1
2. C[C@]12CC[C@@H]3C[C@@H]4C[C@@H](O)CC[C@H]4C[C@H]3[C@@H]1CCC2=O
3. C[C@]12CC[C@@H]3C[C@@H]4C[C@@H](O)CC[C@H]4C[C@H]3[C@@H]1CC=C2C#N
4. C[C@]12CC[C@@H]3C[C@@H]4C[C@@H](O)CC[C@H]4C[C@H]3[C@@H]1CC[C@@]21CO1
5. C[C@]12CC[C@@H]3C[C@@H]4C[C@@H](O)CC[C@H]4C[C@H]3[C@@H]1CC[C@@H]2C#N
6. C[C@@]12CC[C@H]3C[C@H]4C[C@H](O)CC[C@@H]4C[C@@H]3[C@H]1CC(=O)C2

**Result**
1. 6.86
2. 3.88
3. 9.43
4. 18.86
5. 14.80
6. 2.43
